Assay: Solubility in aqueous buffer or acetonitrile cosolvent
Assay type: physicochemical
Details: aqueous buffer; aqueous buffers, pH 6.0 to 7.2, no cosolvent; read-out: Solubility under similar conditions (aqueous buffers)
Ends that are not written are not given here.
Reported endpoint: solubility

> print(dat)
                            sequence.record  reported.endpoint  readout.value
1  MLEGKVKWFNSEKGFGFIEVEGQDDVFVHFSAIQG [CspB-2]         solubility     ~200 µg/mL
